# System: WI-38 human normal fibroblast cells
# assay.name: cell viability assay (MTT)
# Assay type: cell-based
# run.conditions: 250 µg/mL, 24 h, read-out: Validity (%) for sample concentrations (µg/mL) 250

| compound | viability at 250 µg/mL / % |
| --- | --- |
| O=C1CSC(c2ccccc2)N1c1nc(-c2cc(Cl)cc3c2-c2ccc(Cl)cc2C3)cs1 (centres unmarked) | 77.3 |
| O=C1C(Cl)C(c2cccs2)N1c1nc(-c2cc(Cl)cc3c2-c2ccc(Cl)cc2C3)cs1 (centres unmarked) | 60.3 |
| O=C1CSC(c2ccc([N+](=O)[O-])cc2)N1c1nc(-c2cc(Cl)cc3c2-c2ccc(Cl)cc2C3)cs1 (centres unmarked) | 74.3 |
| O=C1C(Cl)C(c2ccc[nH]2)N1c1nc(-c2cc(Cl)cc3c2-c2ccc(Cl)cc2C3)cs1 (centres unmarked) | 52.5 |
| O=C1C(Cl)C(c2ccncc2)N1c1nc(-c2cc(Cl)cc3c2-c2ccc(Cl)cc2C3)cs1 (centres unmarked) | 63 |
| O=C1CSC(c2ccc(Cl)cc2)N1c1nc(-c2cc(Cl)cc3c2-c2ccc(Cl)cc2C3)cs1 (centres unmarked) | 77.5 |
| O=C1C(Cl)C(C=Cc2ccccc2)N1c1nc(-c2cc(Cl)cc3c2-c2ccc(Cl)cc2C3)cs1 (centres unmarked) | 49.2 |
| O=C1C(Cl)C(c2ccc(Br)cc2)N1c1nc(-c2cc(Cl)cc3c2-c2ccc(Cl)cc2C3)cs1 (centres unmarked) | 67.5 |
| COc1ccc(C2SCC(=O)N2c2nc(-c3cc(Cl)cc4c3-c3ccc(Cl)cc3C4)cs2)cc1 (centres unmarked) | 81.2 |
| O=C1C(Cl)C(c2ccccc2)N1c1nc(-c2cc(Cl)cc3c2-c2ccc(Cl)cc2C3)cs1 (centres unmarked) | 49.1 |
| O=C1CSC(c2cccs2)N1c1nc(-c2cc(Cl)cc3c2-c2ccc(Cl)cc2C3)cs1 (centres unmarked) | 51.4 |
| O=C1CSC(c2ccnc3ccccc23)N1c1nc(-c2cc(Cl)cc3c2-c2ccc(Cl)cc2C3)cs1 (centres unmarked) | 46.4 |
| O=C1CSC(c2ccc(Br)cc2)N1c1nc(-c2cc(Cl)cc3c2-c2ccc(Cl)cc2C3)cs1 (centres unmarked) | 50.7 |
| O=C1CSC(c2ccncc2)N1c1nc(-c2cc(Cl)cc3c2-c2ccc(Cl)cc2C3)cs1 (centres unmarked) | 40.3 |
| O=C1C(Cl)C(c2ccco2)N1c1nc(-c2cc(Cl)cc3c2-c2ccc(Cl)cc2C3)cs1 (centres unmarked) | 60.9 |
| O=C1CSC(c2ccco2)N1c1nc(-c2cc(Cl)cc3c2-c2ccc(Cl)cc2C3)cs1 (centres unmarked) | 39.1 |
| COc1ccc(C2C(Cl)C(=O)N2c2nc(-c3cc(Cl)cc4c3-c3ccc(Cl)cc3C4)cs2)cc1 (centres unmarked) | 62.6 |
